# Test system: E21 (patient-derived glioblastoma stem cells of mesenchymal subtype);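 note: nuclei counted by high-content imaging of Hoechst-stained cells in laminin-coated 384-well plates, relative to 0.1% DMSO vehicle wells, with staurosporine as cell-death control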
# Method summary: surviving fraction (nuclei count normalised to DMSO); higher = more cells surviving (less toxic)
# Cond: 12.3 nM; exposure time: 72 h
Where a name gives a salt, the structure may show the parent alone.
Listed here are compounds together with their documented surviving fraction.

Below, each entry is followed by its recorded surviving fraction result.
O=C1c2c(O)ccc(O)c2C(=O)c2c(NCCNCCO)ccc(NCCNCCO)c21 [Mitoxantrone]; 0.608
C=C[C@H]1CN2CC[C@H]1C[C@@H]2[C@@H](O)c1ccnc2ccc(OC)cc12 [Quinidine hydrochloride monohydrate]; 1.03
NC(=O)c1cccc2cn(-c3ccc([C@@H]4CCCNC4)cc3)nc12 [Niraparib]; 0.869
COc1cc(NS(C)(=O)=O)ccc1Nc1c2ccccc2nc2ccccc12 [Amsacrine]; 1.08
S=c1[nH]cnc2nc[nH]c12 [Mercaptopurine]; 1.04
Oc1ccc(OCc2ccccc2)cc1 [Monobenzone]; 1.02
Nc1ncnc2c1c(-c1ccc(Oc3ccccc3)cc1)cn2C1CCCC1; 1.05
O=C1CC[C@@H](C(=O)N2CSC[C@H]2C(=O)O)N1 [Pidotimod]; 1

Now for a further compound.
QUERY: Which measured surviving fraction value corresponds to CCn1cc(-c2ccnc3[nH]c(-c4cccc(CN(C)C)c4)cc23)c(-c2ccc(NC(=O)N(C)C)cc2)n1 ?
RESULT: 0.428
